- Tested System: T1, CHO-hu α11 (Homo sapiens, UniProt Q9UKX5)
- T1 construct: expressed in transfected cells; host or cells: CHO-K1
- T1 sequence (Q9UKX5 23-1188): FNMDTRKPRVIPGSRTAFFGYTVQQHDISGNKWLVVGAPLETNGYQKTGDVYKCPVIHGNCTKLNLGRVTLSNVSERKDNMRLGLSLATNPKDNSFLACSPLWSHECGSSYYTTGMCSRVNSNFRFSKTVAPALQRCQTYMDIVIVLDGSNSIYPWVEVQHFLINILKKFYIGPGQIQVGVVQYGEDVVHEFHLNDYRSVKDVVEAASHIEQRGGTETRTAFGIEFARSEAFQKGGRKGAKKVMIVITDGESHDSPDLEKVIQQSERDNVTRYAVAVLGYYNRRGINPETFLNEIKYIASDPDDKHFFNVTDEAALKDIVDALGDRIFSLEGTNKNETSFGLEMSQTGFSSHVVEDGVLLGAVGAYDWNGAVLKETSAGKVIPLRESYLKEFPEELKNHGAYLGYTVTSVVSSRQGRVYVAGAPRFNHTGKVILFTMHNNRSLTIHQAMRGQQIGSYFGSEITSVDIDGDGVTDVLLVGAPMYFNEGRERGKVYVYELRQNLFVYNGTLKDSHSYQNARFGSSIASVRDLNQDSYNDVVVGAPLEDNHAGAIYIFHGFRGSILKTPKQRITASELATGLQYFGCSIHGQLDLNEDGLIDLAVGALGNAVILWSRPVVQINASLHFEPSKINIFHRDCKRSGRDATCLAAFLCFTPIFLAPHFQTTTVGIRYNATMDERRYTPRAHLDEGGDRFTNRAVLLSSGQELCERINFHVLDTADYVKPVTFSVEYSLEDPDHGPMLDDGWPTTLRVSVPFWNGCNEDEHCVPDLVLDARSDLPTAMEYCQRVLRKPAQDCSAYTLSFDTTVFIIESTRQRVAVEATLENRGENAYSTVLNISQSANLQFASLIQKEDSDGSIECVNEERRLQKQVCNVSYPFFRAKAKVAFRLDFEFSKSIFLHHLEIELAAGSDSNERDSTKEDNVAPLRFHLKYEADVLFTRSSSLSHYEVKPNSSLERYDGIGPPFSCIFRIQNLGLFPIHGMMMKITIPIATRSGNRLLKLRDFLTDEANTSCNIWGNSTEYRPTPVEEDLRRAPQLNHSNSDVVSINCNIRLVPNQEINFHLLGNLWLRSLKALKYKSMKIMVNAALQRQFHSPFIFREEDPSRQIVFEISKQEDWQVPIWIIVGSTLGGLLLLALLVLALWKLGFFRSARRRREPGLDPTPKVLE
- T1 sequence (P05556 21-798 partner): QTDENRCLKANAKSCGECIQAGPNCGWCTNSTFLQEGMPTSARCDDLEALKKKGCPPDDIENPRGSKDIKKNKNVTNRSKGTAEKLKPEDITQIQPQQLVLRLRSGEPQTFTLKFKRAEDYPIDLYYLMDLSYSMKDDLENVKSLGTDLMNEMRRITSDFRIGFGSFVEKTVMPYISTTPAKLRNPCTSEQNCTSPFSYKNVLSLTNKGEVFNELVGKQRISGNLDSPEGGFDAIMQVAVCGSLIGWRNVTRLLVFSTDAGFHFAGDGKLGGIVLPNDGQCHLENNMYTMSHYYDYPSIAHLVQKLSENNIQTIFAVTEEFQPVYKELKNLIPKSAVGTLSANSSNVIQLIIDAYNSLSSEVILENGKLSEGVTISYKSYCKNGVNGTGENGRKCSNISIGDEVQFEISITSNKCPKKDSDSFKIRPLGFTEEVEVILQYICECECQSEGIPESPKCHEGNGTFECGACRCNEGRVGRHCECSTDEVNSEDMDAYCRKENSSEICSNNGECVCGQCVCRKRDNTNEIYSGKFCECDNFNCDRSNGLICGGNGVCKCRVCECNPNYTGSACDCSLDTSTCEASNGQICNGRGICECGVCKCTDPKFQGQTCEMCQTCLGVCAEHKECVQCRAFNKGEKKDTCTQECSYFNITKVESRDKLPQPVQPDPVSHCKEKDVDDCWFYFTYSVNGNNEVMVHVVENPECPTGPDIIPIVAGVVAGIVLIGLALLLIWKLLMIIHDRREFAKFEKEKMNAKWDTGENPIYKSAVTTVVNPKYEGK
- Assay Text: Cell adhesion inhibition on type I collagen (xCelligence)
- Type: cell-based
- Cond: Table 11, 1994-01-C7 variants, FIG. 4C; read-out: Inhibition of Cell Adhesion IC50

{"Molecule": "Antibody 54: 1994-01-C7 variant; VH SEQ ID NO: 30, VL SEQ ID NO: 37 (antibody, V domains shown) VH: QVQLVQSGAEVKKPGASVKVSCKASGYTFTSYGISWVRQAPGQGLEWMGWISAYNANTNYAQKLQGRVTMTTDTSTSTAYMELRSLRSDDTAAYYCARVTGITGTTIGPWGQGTMVTVSS VL: DIQMTQSPSSLSASVGDRVTITCRASQSISSYLNWYQQKPGKAPKLLIYDASSLESGVPSRFSGSGSGTEFTLTISSLQPDDFAVYYCQQYNNWPQTFGQGTKVEIK", "IC50": "3.5 nM"}
{"Molecule": "Antibody 60: 1994-01-C7 variant; VH SEQ ID NO: 33, VL SEQ ID NO: 37 (antibody, V domains shown) VH: QVQLVQSGAEVKKPGASVKVSCKASGYTFTSYGISWVRQAPGQGLEWMGWISAYNSNTNYAQKLQGRVTMTTDTSTSTAYMELRSLRSDDTAAYYCARVTGITGTTIGPWGQGTMVTVSS VL: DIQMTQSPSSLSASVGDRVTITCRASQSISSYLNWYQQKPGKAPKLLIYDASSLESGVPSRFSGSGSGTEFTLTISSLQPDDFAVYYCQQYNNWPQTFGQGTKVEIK", "IC50": "4.2 nM"}
{"Molecule": "Antibody 58: 1994-01-C7 variant; VH SEQ ID NO: 31, VL SEQ ID NO: 37 (antibody, V domains shown) VH: QVQLVQSGAEVKKPGASVKVSCKASGYTFTSYGISWVRQAPGQGLEWMGWISAYNANVNYAQKLQGRVTMTTDTSTSTAYMELRSLRSDDTAAYYCARVTGITGTTIGPWGQGTMVTVSS VL: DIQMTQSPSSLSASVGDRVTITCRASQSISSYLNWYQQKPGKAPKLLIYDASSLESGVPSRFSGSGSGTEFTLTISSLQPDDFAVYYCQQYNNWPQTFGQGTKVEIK", "IC50": "3 nM"}
